- System: SK-MEL-5 melanoma
- Assay explanation: NCI tumour cell line growth inhibition, 48 h
Readout: TGI

>>> experimental_result("Cn1cc(/C=C2\\C(=O)Nc3cccnc32)c2ccccc21")
"> 25 µM"
>>> experimental_result("O=C(NC(Cc1c[nH]c2ccccc12)C(=O)O)/C(=C/c1ccccc1)NC(=O)c1ccccc1 (centres undefined)")
"> 100 µM"
>>> experimental_result("Cc1nc(Nc2ccc([N+](=O)[O-])cc2)sc1C(=O)/C=C/c1ccc(N(C)C)cc1")
"> 100 µM"

Field: next compound
Can you share its TGI? I mean this compound: COC(=O)C1CC(C=O)=C(SC)N1 (centres undefined)
> 50 µM

* * *

- Test system: UO-31 renal
- Assay explanation: NCI tumour cell line growth inhibition, 48 h
Please provide measured TGI for the entries that follow.
Answers are plain numbers, in µM.

>>> experimental_result("OCC1=C[C@@](COCc2ccccc2)(OCc2ccccc2)[C@@H](OCc2ccccc2)[C@@H]1OCc1ccccc1")
67.1
>>> experimental_result("COc1ccc(N2C(=O)CSC2c2cc(OC)c(OC)c(OC)c2)cc1 (stereo not given)")
27.1
>>> experimental_result("C=C(C)[C@@H]1CC[C@]2(C#N)CC[C@]3(C)[C@H](CC[C@@H]4[C@@]5(C)CCCNC(C)(C)[C@@H]5CC[C@]43C)[C@@H]12")
7.92
>>> experimental_result("C[C@@H]1CC2(N=CCS2)[C@]2(O)O[C@@H]3C[C@@]4(C)[C@H](C[C@H]3O[C@@H]2O1)C[C@H]1O[C@]12[C@@H]4[C@H](O)C(=O)[C@]1(C)C(C3=CC(=O)OC3)CC[C@]21O (stereo not given in full)")
0.0755

Hey, quick one: what's TGI for each of these?
1. COc1cc([N+](=O)[O-])c2ncccc2c1O
2. CCc1ccc(/C=C2/SC(=S)NC2=O)cc1
3. COCCOCCOCCOCCOc1ccc2c(c1)C(=O)c1nc3ncccc3c(=O)n1-2
4. Cc1cc(C(C)(C)C)c(OCCCN2CCOCC2)c(C(C)(C)C)c1

1: 10.4; 2: 33.1; 3: 6.21; 4: 32.7

* * *

- Tested on: HCT-116 colon
- Assay explanation: NCI tumour cell line growth inhibition, 48 h
Please provide measured TGI for the entries that follow.

Consider the reported TGI for these compounds:
>>> experimental_result("CN1C(C(=O)Nc2ccccn2)=C(O)c2ccccc2S1(=O)=O")
"> 100 µM"
>>> experimental_result("O=c1c2cc(Cl)ccc2n2nnc3ccc(NCCNCCO)c1c32")
"2.33 µM"
>>> experimental_result("COc1ccc2c3c([nH]c2c1)[C@H]1C[C@H]2[C@H](C[C@@H](O)[C@H](OC)[C@H]2C(=O)O)CN1CC3")
"> 100 µM"
>>> experimental_result("NC(=O)c1ccc(-c2c3ccccc3cc3c2ccc2ccccc23)cc1")
"10.8 µM"
>>> experimental_result("NC(=S)N1N=C(c2ccc3c(c2)CCC3)CC1c1ccccc1 (centres undefined)")
"87.6 µM"

Hey, quick one: what's TGI for each of these?
1. O=[N+]([O-])c1ccc(-c2nc3ccccc3o2)cc1
2. COc1ccc(C2CC(C)=Nc3c([nH]c(=S)[nH]c3=O)N2)cc1 (centres undefined)
3. C=CC(=O)N1C/C(=C\c2ccc(F)cc2)C(=O)/C(=C/c2ccc(F)cc2)C1
4. Cc1ccc(Oc2cc(C)ccc2P(=O)(O)O)cc1
5. O=C(O)c1oc2ccc([N+](=O)[O-])c3c2c1CCC3
6. C[C@@H](CC(O)C(O)C(C)(C)O)C1CCC23CC12CCC1[C@@]2(C)CCC(=O)C(C)(C)C2CC(OC2OC(CO)C(O)C(O)C2O)[C@]13C (some centres undefined)
7. NC(=NC1C2CC3CC(C2)CC1C3)Nc1ccc(I)cc1 (centres undefined)
8. COCCOC(=O)CCn1cc(F)c(=O)[nH]c1=O

1. > 100 µM
2. 30.1 µM
3. 0.105 µM
4. > 100 µM
5. > 100 µM
6. > 10 µM
7. 10.4 µM
8. > 150 µg/mL

Hey, quick one: what's TGI for each of these?
1. CCSc1nn(-c2c3ccccc3nc3ccccc23)c(=S)s1
2. Cc1cc(Br)cc(C)c1NC(=O)C(=O)C(C(=O)c1ccc(Cl)c(Cl)c1)C1OC(=O)c2ccccc21 (centres undefined)
3. Cc1cccc(-c2cc(=O)c3c(C)ccnc3[nH]2)c1

1. > 100 µM
2. > 100 µM
3. > 33.5 µM

* * *

- System: OVCAR-5 ovarian
- Assay explanation: NCI tumour cell line growth inhibition, 48 h
Please provide measured TGI for the entries that follow.

Consider the reported TGI for these compounds:
>>> experimental_result("COc1cc(Nc2ncc(-c3ccccc3)o2)cc(OC)c1OC")
"> 25 µM"
>>> experimental_result("COc1ccc2c(c1)[n+]([O-])c(-c1ccc(Cl)c(Cl)c1)c(N)[n+]2[O-]")
"> 100 µM"
>>> experimental_result("Fc1ccccc1C1SCC2=Nc3ccccc3CN21 (stereo unspecified)")
"> 100 µM"
>>> experimental_result("C=C(Cl)C(=C)CCC(Cl)C(C)(C)Cl (stereo unspecified)")
"> 100 µM"
>>> experimental_result("O=C(N/N=C\\c1cc(Cl)ccc1O)N/N=C/c1cc(Cl)ccc1O")
"> 100 µM"

Field: next compound
Please tell me: TGI of CCOC(=O)C1C2C1C1C(C(=O)OCC)C21 (stereo unspecified) , system OVCAR-5 ovarian?
> 100 µM

* * *

- Tested on: PC-3 prostate
- Assay explanation: NCI tumour cell line growth inhibition, 48 h
Readout: GI50

Consider the reported GI50 for these compounds:
>>> experimental_result("O=C(O)C(O)C(O)C1[O][Sb][O]C1CO (stereo not given)")
"> 100 µM"
>>> experimental_result("Fc1ccc(-c2c(-c3ccncc3)n(CCN3CCOCC3)c3cccnc23)cc1")
"> 25 µM"
>>> experimental_result("COCCOC(=O)CCn1cc(F)c(=O)[nH]c1=O")
"108 µg/mL"

Hey, quick one: what's GI50 for each of these?
1. NC(=NC1C2CC3CC(C2)CC1C3)Nc1ccc(I)cc1 (stereo not given)
2. COc1cc(Nc2ncc(-c3ccccc3)o2)cc(OC)c1OC

3.14 µM
7.3 µM

* * *

- Test system: HCT-15 colon
- Assay explanation: NCI tumour cell line growth inhibition, 48 h
Readout: GI50

Consider the reported GI50 for these molecules:
>>> experimental_result("CCCCCCCCCC[C@@H](O)[C@H]1CC[C@@H]([C@H]2CC[C@H]([C@H](O)CCCCCCCCCC[C@@H]3CC(CC(C)=O)C(=O)O3)O2)O1 (stereo partly drawn)")
"20.9 µM"
>>> experimental_result("CC(Cl)CC(=O)Nc1ccc2c(c1)oc(=O)c1cc(NC(=O)CC(C)Cl)ccc12 (stereo not drawn)")
"13.2 µM"

Field: next molecule
Can you share its GI50? I mean this molecule: NC(=NC1C2CC3CC(C2)CC1C3)Nc1ccc(I)cc1 (stereo not drawn)
2.88 µM

* * *

Please provide measured TGI for the entries that follow.
- Test system: SF-268 CNS
- Assay explanation: NCI tumour cell line growth inhibition, 48 h

Consider the reported TGI for these compounds:
>>> experimental_result("COCCn1cc(-c2csc(-c3c[nH]c4ccc(F)cc34)n2)c2cccnc21")
"> 100 µM"
>>> experimental_result("CCCS(=O)OC1C(C2COC(C)(C)O2)OC2OC(C)(C)OC21 (stereo unspecified)")
"62.4 µM"
>>> experimental_result("C[Si](C)(C)[C@@]1([Se]c2ccccc2)CC[C@@H]1C(=O)c1ccccc1")
"> 100 µM"
>>> experimental_result("CCCCC[C@@H]1OC(=O)[C@@]2(CC3c4ccccc4C2c2ccccc23)[C@H]1C(=O)OC")
"> 100 µM"
>>> experimental_result("O=C(O)CNS(=O)(=O)c1ccc(NC(=O)c2cccc([N+](=O)[O-])c2)cc1")
"> 100 µM"

Hey, quick one: what's TGI for each of these?
1. CN(C)/C(=N/C(=O)Nc1ccccc1)SCc1ccccc1
2. CC1=NN(C(=O)Cc2ccccc2)C(=O)/C1=C\c1cccc(O)c1

["> 100 µM", "> 100 µM"]

Hey, quick one: what's TGI for each of these?
1. O=c1c2c(=NCCCN3CCCC3)cc3c(=O)n(CCCN4CCCC4)c(=O)c4c(NCCCN5CCCC5)cc(c(O)n1CCCN1CCCC1)c2c4-3
2. OCC(O)C(OC1OC(CO)C(O)C(O)C1O)c1nn(-c2ccc(F)cc2)c2nc3cc(Cl)c(Cl)cc3cc12 (stereo unspecified)
3. NC(Cc1ccccc1)C(=O)O (stereo unspecified)
4. CCOC(=O)c1cc2cc([N+](=O)[O-])ccc2oc1=O

["8.66 µM", "> 100 µM", "> 100 µM", "> 100 µM"]

All figures here come from PubChem BioAssay (NCI).
